Test system: Plasmodium falciparum
Test: GSK_TCMDC: Inhibition of Plasmodium falciparum 3D7 in whole red blood cells, using parasite LDH activity as an index of growth. Test compounds present at 2uM
Format: functional
READOUT_TYPE: Inhibition (%)
All answers are understood in %, so give the number only.

Solved entries:
COMPOUND: CN1CCN(c2nc(NCCNc3ccc([N+](=O)[O-])cc3)c3ccccc3n2)CC1
Inhibition, %: 90

COMPOUND: CC1CN(Cc2cccc(-c3ccc(-c4nc5cc(F)ccc5[nH]4)cc3)c2)CC(C)O1.O=C(O)C(F)(F)F (stereo not drawn)
Inhibition, %: 87

COMPOUND: CCC(=O)NC(c1ccco1)c1cc(Cl)c2cccnc2c1O (stereo not drawn)
Inhibition, %: 89

COMPOUND: CCOC(=O)c1nc(-c2cc(Cl)nc(Cl)c2)[nH]c1NC(=S)NCc1ccc(NS(C)(=O)=O)cc1
Inhibition, %: 100

COMPOUND: CCCCCCCNc1cc(C)nc2ccc(OC)cc12.Cl
Inhibition, %: 100

What measured Inhibition goes with Cc1ccn2cc(-c3ccc(NC(=O)c4ccc(Br)o4)cc3)nc2c1 ?
98

Which Inhibition is reported for this compound? COc1ccc2nccc(NCC3(O)CCN(CCc4ccc5c(c4)OCCO5)CC3)c2n1.Cl
100

Look up Inhibition for this compound: CCNc1cc(C(=O)N[C@@H](Cc2ccccc2)[C@H](O)CNCc2cccc(OC)c2)c(OC)c(N2CCCCS2(=O)=O)c1
97

Which measured Inhibition value corresponds to CC1(C)N=C(N)N=C(NOCCCCCCONC2=NC(N)=NC(C)(C)N2)N1 ?
95

Suppose we examine the compound COc1c(OC)c(OC)c2ccccc2c1CNCCCCCCNCc1c(OC)c(OC)c(OC)c2ccccc12.Cl ; what Inhibition value has been reported?
100

Reported Inhibition, compound O=C(Nc1ccncc1)c1cn(-c2ccccc2)nc1-c1cccs1 : ____
98

Look up Inhibition for this compound: Cc1ccc(C(C)C)c(Oc2cnc(NC(CO)c3ccccc3)nc2N)c1 (stereo not drawn)
95

I am curious: what Inhibition value has been reported for COc1cc(Cl)c(C)cc1-n1cc(C(=O)c2cc(Br)ccc2O)cc(C#N)c1=O ?
95

* * *

compounds and their reported Inhibition
Test system: Plasmodium falciparum
Assay: GSK_TCMDC: Inhibition of Plasmodium falciparum 3D7 in whole red blood cells, using parasite LDH activity as an index of growth. Test compounds present at 2uM
Format: functional
Give just the numeric value; % need not be written.

These recorded examples may help you get a feel for the data.
COMPOUND: Cl.N#Cc1ccc(NC(=O)Nc2ccc3c(c2)CCN(C2CCC2)CC3)cc1
UNIT_TEXT: %
NUMERIC_RESULT: 96

COMPOUND: CCC(=O)N(c1ccccc1)C1CCN(CCCC(NC(=O)c2cc(C(F)(F)F)cc(C(F)(F)F)c2)c2ccc(Cl)c(Cl)c2)CC1 (stereo not given)
UNIT_TEXT: %
NUMERIC_RESULT: 96

Request - read-out Inhibition | tested on Plasmodium falciparum | compound Cc1cc(N2CC=CCC2)nc(NC(=N)Nc2ccc(Cl)cc2)n1
100

Give Plasmodium falciparum Inhibition for COc1ccc(Nc2nc(NC3CCN(Cc4ccccc4)CC3)cc(-c3ccncc3)n2)cc1
88

Request - read-out Inhibition | tested on Plasmodium falciparum | compound COc1ccc(Nc2nccc(N3CCC(NC(=O)C(C)c4ccc(Cl)cc4)C3)n2)cc1 (stereo not given)
85

Item: COc1ccc2nccc([C@@H](O)CN3CCC(NC(=O)c4ccc(Cl)c(Cl)c4)CC3)c2c1 Test system: Plasmodium falciparum Read-out: Inhibition Value: ?
96

Query Inhibition on Plasmodium falciparum for CO[C@H](C)[C@H](NC(=O)[C@H](CC(C)C)[C@H](CCC(F)(F)F)N(O)C=O)C(=O)Nc1nccs1
99

* * *

Listed here are compounds together with their documented Inhibition.
Test system: HepG2
Test: GSK_TCMDC: Percent inhibition of human HepG2 cell line. Test compounds present at 10uM.
Assay type: functional
// note: answer is a bare numeric in %

Recorded Inhibition, per entry:
COMPOUND: CCNc1cc(C)nc(Nc2ccccc2)n1
NUMERIC_RESULT: 16

COMPOUND: CCNc1cc(C(=O)N[C@@H](Cc2ccccc2)[C@H](O)CNC23CCC(CC2)C3)cc(N2CCCCS2(=O)=O)c1.Cl
NUMERIC_RESULT: 22

COMPOUND: COc1ccc2nccc([C@@H](O)CN3CCC(NC(=O)C(c4cc5ccccc5o4)N4CCN(C(c5ccccc5)c5ccccc5)CC4)CC3)c2c1 (some centres undefined)
NUMERIC_RESULT: 18

Give the measured Inhibition of O=C(Nc1cccc(-c2cccc(-c3nc4cc(C(F)(F)F)ccc4[nH]3)c2)c1)c1cccnc1Cl .
56

* * *

Tested on: Plasmodium falciparum
Test: GSK_TCMDC: Inhibition of Plasmodium falciparum 3D7 in whole red blood cells, using parasite LDH activity as an index of growth. Test compounds present at 2uM
Assay type: functional
Item-by-item account of Inhibition
Express the result in % but write the number alone.

Below, 6 compounds whose answers are already recorded.
COMPOUND: O=c1cc(NCCCNC2CCCc3c2ccc2ccccc32)[nH]c2ccccc12 (configuration not stated)
Inhibition [%]: 94

COMPOUND: CNCCNCc1cccc(-c2cccc(-c3nc4cc(F)ccc4[nH]3)c2)c1.O=C(O)C(F)(F)F
Inhibition [%]: 98

COMPOUND: Cc1ccc(C(=O)Nc2cccc(-c3ccc(N4CCN(C)CC4)nn3)c2)cc1[N+](=O)[O-]
Inhibition [%]: 99

COMPOUND: CC(C)(C)c1ccc(NC(=O)c2cccc(CN3CCCN(Cc4ccsc4)CC3)c2)cc1.O=C(O)C(F)(F)F
Inhibition [%]: 96

COMPOUND: Cc1ccccc1C1CCN(C2CCC(NC(=O)c3cc4cc(C(C)C)ccc4[nH]3)CC2)CC1 (configuration not stated)
Inhibition [%]: 99

COMPOUND: Cc1ccc(F)c(OC2CCN(c3ccc(C(=O)NC4CC4)cn3)CC2)c1
Inhibition [%]: 92

Could you share what Inhibition was measured for NCC1CCCN1Cc1ccc(-c2ccc(-c3nc4cc(C(F)(F)F)ccc4[nH]3)cc2)cc1.O=C(O)C(F)(F)F (configuration not stated) , tested on Plasmodium falciparum?
100

* * *

Tested on: Plasmodium falciparum
Experiment: GSK_TCMDC: Inhibition of Plasmodium falciparum 3D7 in whole red blood cells, using parasite LDH activity as an index of growth. Test compounds present at 2uM
Assay type: functional
READOUT_TYPE: Inhibition (%)
Report the figure in % without appending any unit label.

MOLECULE: COc1cc(CCN(C)Cc2ccc(OC)c(OC)c2)ccc1NC(=O)c1cccc2c(O)c3cccc(F)c3nc12
Inhibition / %: 100

Need Inhibition, item Cc1ccccc1C1CCN(C2CCC(NC(=O)c3ccc4c(c3)-c3nocc3C(C)O4)CC2)CC1 (centres undefined)
88

What value of Inhibition has been reported for the following molecule? CN(CC1CCC(NC(=O)/C=C/c2ccc(Cl)c(Cl)c2)CC1)C1CCC(c2c[nH]c3ccccc23)CC1 (centres undefined)
99

Fill in: Inhibition of COc1ccc(Nc2nc(C)cc(NC3CCCC3)n2)cc1 is ___
98

* * *

Entries and their Inhibition
System: Plasmodium falciparum
Test: GSK_TCMDC: Inhibition of Plasmodium falciparum Dd2 in whole red blood cells, using parasite LDH activity as an index of growth. Test compounds present at 2uM
Assay type: functional
Form entry: value (%) — number only.

COMPOUND: Cc1cccc2nc(-c3cccc(-c4ccc(NC(=O)C5CCN(C)CC5)cc4)c3)[nH]c12
NUMERIC_RESULT: 100
//
COMPOUND: O=C(Nc1cccc(CN2CCN(C(=O)c3cccc(F)c3)CC2)c1)c1cccs1.O=C(O)C(F)(F)F
NUMERIC_RESULT: 95
//
COMPOUND: CC(=O)Nc1ccc(CN2CCc3ccc(NS(=O)(=O)c4cccc(OCc5ccc(Cl)cc5)c4)cc3CC2)s1
NUMERIC_RESULT: 7
//
COMPOUND: O=C(/C=C/c1ccc(Cl)c(Cl)c1)NCCCCCN1CCCN(C(=O)Nc2ccc(Cl)c(Cl)c2)CC1
NUMERIC_RESULT: 2

Inhibition of O=C(NC1CCC(N2CCCC(OCc3ccccc3)C2)CC1)c1cc2ccccc2[nH]1 (stereo unspecified) on Plasmodium falciparum?
11

For the record Cc1ccc2ncc(Cl)c(CCN3CCC(NCc4ccc5c(n4)NC(=O)CS5)CC3)c2n1.Cl , what value of Inhibition is listed for Plasmodium falciparum?
12

* * *

Test system: Plasmodium falciparum
Experiment: GSK_TCMDC: Inhibition of Plasmodium falciparum Dd2 in whole red blood cells, using parasite LDH activity as an index of growth. Test compounds present at 2uM
Type: functional
Items are presented alongside their recorded Inhibition.
Your answer should be a plain number; it is taken to be in %.

Here is how some compounds turned out for Inhibition.
COMPOUND: Cc1onc(-c2ccccc2)c1C(=O)Nc1nc(-c2ccccn2)nc2ccsc12
UNIT_TEXT: %
Inhibition: 78

COMPOUND: O=C(/C=C/c1ccc(Cl)c(Cl)c1)NCCCCCN1CCCC(C(=O)Nc2cccc(Cl)c2)C1 (stereo not given)
UNIT_TEXT: %
Inhibition: 2

COMPOUND: CCCC(=O)Nc1ccc(OCCN(Cc2ccccc2OC(F)(F)F)c2ccc(C(F)(F)F)c(C#N)c2)cc1
UNIT_TEXT: %
Inhibition: 97

COMPOUND: CCN(CC)c1nc(-c2ccccc2)cc(-c2ccccc2)c1C#N
UNIT_TEXT: %
Inhibition: 66

Turning now to a further record.
Requested read-out: Inhibition. Entry: COc1ccc2cc(C(=O)Nc3ccc4c(c3)CCN(C3CCC3)CC4)ccc2c1.O=C(O)C(F)(F)F
9
